Recorded values, source PubChem BioAssay (NCI).

# System: HS 578T breast
# PROCEDURE SUMMARY: NCI tumour cell line growth inhibition, 48 h; in the data active = GI50 below about 0.43 µM; inactive = the rest
Valid outcomes are listed here; reply with one: active, inactive

q: Outcome logged for CCOC(=O)c1nnn(-c2no[n+]([O-])c2-c2ccc(OC)cc2)c1COc1cccc2cccnc12 in this assay:
a: inactive

q: Outcome logged for O=S(=O)(Nc1ccc(Cl)cc1)c1ccc(-c2cnc(C3CC3)o2)cc1 in this assay:
a: active

q: Outcome logged for CCC(=O)OC1CCC2C3CCC(=O)OC3C(C)(CCC(=O)O)CC12C (configuration not stated) in this assay:
a: inactive

q: Outcome logged for Oc1cccc(-c2nc(-c3n[nH]c(=S)n3-c3ccccc3)cc3c2[nH]c2ccccc23)c1 in this assay:
a: inactive

q: Outcome logged for Cc1ccc(NC2=N[C@]34CC(=O)CC[C@]3(C)[C@H]3CC[C@]5(C)C(=O)CC[C@H]5[C@@H]3C[C@@H]4S2)c(C)c1 in this assay:
a: inactive

q: Outcome logged for COc1ccc2nc3cccc([N+](=O)[O-])c3c(NCCNCCO)c2c1 in this assay:
a: active

q: Outcome logged for O=c1ccc2nc(C(F)(F)F)nn(-c3ccccc3)c-2c1 in this assay:
a: inactive

q: Outcome logged for O=C(N/N=C(\CN1CCN(c2cc3[nH]cc(C(=O)O)c(=O)c3cc2F)CC1)c1ccc(Cl)cc1)c1ccncc1 in this assay:
a: inactive

q: Outcome logged for Cc1cc(N(CCNc2ccnc3cc(Cl)ccc23)Cc2cccs2)nc(Cl)n1 in this assay:
a: inactive

q: Outcome logged for C(=C1c2ccccc2-c2ccccc21)c1ccncc1 in this assay:
a: inactive

q: Outcome logged for O=C(Nc1cccc(Cl)c1)Nc1nccs1 in this assay:
a: inactive

q: Outcome logged for O=C1N[C@@H]2[C@@H](O)[C@@H](O)[C@H](O)C[C@H]2c2cc3c(c(O)c21)OCO3 in this assay:
a: active
